Data provenance is paper PMC3141555.

# TARGET ENTITY: DJ-1 (Homo sapiens, UniProt Q99497)
# Construct: recombinant DJ-1
# Sequence (Q99497 2-189): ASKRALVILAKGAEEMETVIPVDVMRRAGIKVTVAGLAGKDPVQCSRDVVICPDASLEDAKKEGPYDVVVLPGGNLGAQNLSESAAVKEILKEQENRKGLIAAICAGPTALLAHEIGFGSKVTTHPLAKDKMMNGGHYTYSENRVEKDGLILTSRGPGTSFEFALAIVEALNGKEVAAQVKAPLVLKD
# EXPERIMENTAL PROTOCOL: quartz crystal microbalance (compound fixed on sensor chip, recombinant DJ-1 applied)
METRIC: Kd (µM)
# value in µM; strip the unit string

Exercise: Given the entry "COc1cc(C(=O)Nc2ccc(-c3cn4cccc(C)c4n3)cc2)cc(OC)c1OC" , report its measured Kd.
Key: 0.103
